The reported measurements were obtained from BigSolDB 2.1.

Run conditions: in methyl acetate, 293.15 K
Value type: solubility (mole fraction)
No unit in the answer, please; the number alone is enough.

Using the record for CCCCN(CCCC)CC(O)c1cc(Cl)cc2c1-c1ccc(Cl)cc1/C2=C/c1ccc(Cl)cc1 (stereo unspecified) , state its measured solubility (mole fraction).
0.00186

====

Run conditions: in ethanol, 308.15 K
Value type: solubility (mole fraction)

Output solubility (mole fraction) of CCCCN(CCCC)CC(O)c1cc(Cl)cc2c1-c1ccc(Cl)cc1/C2=C/c1ccc(Cl)cc1 (stereo unspecified)
0.000265

====

Run conditions: in ethyl acetate, 308.15 K
Value type: solubility (mole fraction)
The response must contain the number and no unit.

Identify the reported solubility (mole fraction) for the following entry. CCCCN(CCCC)CC(O)c1cc(Cl)cc2c1-c1ccc(Cl)cc1/C2=C/c1ccc(Cl)cc1 (stereo unspecified)
0.009
